# credit: the supplement of paper PMC12494721

# fold change of 2-Phenylethylamine concentration per entry
# Test system: Ruminococcus gnavus DSM 108212
# procedure.details: fold change of 2-Phenylethylamine concentration vs plate DMSO controls (fold change (ratio)); higher = more amine produced, active = hit call of the paper (significant change in both replicates, either direction)
# setup.conditions: incubation time: 27 h, anaerobic, 37 °C
Where a name gives a salt, the structure may show the parent alone.
The answer should be a number; do not append a unit.

compound: CC(=O)NCCCS(=O)(=O)O [Acamprosate calcium] (20 µM)
value.reported: 0.996
--
compound: CC(C)[C@H](N)C(=O)OCCOCn1cnc2c(=O)nc(N)[nH]c21 [Valacyclovir hydrochloride] (20 µM)
value.reported: 0.997
--
compound: O=C1CCC(N2C(=O)c3ccccc3C2=O)C(=O)N1 (stereo unspecified) [Thalidomide] (20 µM)
value.reported: 0.981
--
compound: Cc1[nH]cnc1CN1CCc2c(c3ccccc3n2C)C1=O [Alosetron hydrochloride] (20 µM)
value.reported: 0.975
--
compound: COC(=O)Nc1nc2cc([S+]([O-])c3ccccc3)ccc2[nH]1 (stereo unspecified) [Oxfendazole] (20 µM)
value.reported: 0.999

Let's switch to this compound now.
Any idea what its fold change of 2-Phenylethylamine concentration is? The compound is OCCN1CCN(CCCN2c3ccccc3C=Cc3ccccc32)CC1 [Opipramol dihydrochloride] (20 µM)
1.02

====

# Test system: Escherichia coli IAI1
# procedure.details: fold change of Cadaverine concentration vs plate DMSO controls (fold change (ratio)); higher = more amine produced, active = hit call of the paper (significant change in both replicates, either direction)
# setup.conditions: incubation time: 27 h, anaerobic, 37 °C
Counter-ions that a name gives are not always drawn.
# fold change of Cadaverine concentration per entry
The answer should be a number; do not append a unit.

Reference set, count: 3
compound: C#C[C@]1(OC(C)=O)CC[C@H]2[C@@H]3CCC4=CC(=NO)CC[C@@H]4[C@H]3CC[C@@]21CC (mixture of isomers) [Norgestimate] (20 µM)
value.reported: 1.02
--
compound: CCOC(=O)[C@H](CCc1ccccc1)N[C@@H](C)C(=O)N(CC(=O)O)C1Cc2ccccc2C1 [Delapril Hydrochloride] (20 µM)
value.reported: 1.01
--
compound: CC(=O)O[C@]1(C(C)=O)CC[C@H]2[C@@H]3C=C(C)C4=CC(=O)CC[C@]4(C)[C@H]3CC[C@@]21C [Megestrol acetate] (20 µM)
value.reported: 0.982

Any idea what its fold change of Cadaverine concentration is? The compound is CCCN(CCC)CCc1cccc2c1CC(=O)N2 [Ropinirole hydrochloride] (20 µM)
0.978

Any idea what its fold change of Cadaverine concentration is? The compound is CC(C)NCC(O)c1ccc(O)c(O)c1 (single isomer, unassigned; (+)) [(+) Isoproterenol-(+)-bitartrate salt] (20 µM)
0.976

Any idea what its fold change of Cadaverine concentration is? The compound is Nc1nc2c(ncn2COCCO)c(=O)[nH]1 [Acyclovir] (20 µM)
1

Any idea what its fold change of Cadaverine concentration is? The compound is CNc1ncnc2c1ncn2[C@@H]1O[C@H](CO)[C@@H](O)[C@H]1O [N6-methyladenosine] (20 µM)
0.987

Any idea what its fold change of Cadaverine concentration is? The compound is CC(=C(CCO)SSCC1CCCO1)N(C=O)Cc1cnc(C)nc1N (stereo in doubt) [Fursultiamine hydrochloride] (20 µM)
0.973
